# Test system: SW-620 colon
# Test description: NCI tumour cell line growth inhibition, 48 h; in the data active = GI50 below about 0.43 µM; inactive = the rest
Possible outcomes: 1 for active, -1 for inactive

COc1cc(NC(=O)CSc2nc3ccc(C)cc3c(=O)n2Cc2ccccc2)cc(OC)c1OC :: -1
CCN1Cc2c(ccc(F)c2C#N)O[C@@H](C)CNC(=O)c2c(N)nn3ccc1nc23 :: -1
CNC(=O)CC1NC(=O)c2csc(n2)-c2ccc(-c3nc(C4=NC(C(=O)N5CCCC5C(N)=O)CO4)cs3)nc2-c2csc(n2)-c2csc(n2)C(C(C)C)NC(=O)CNC(=O)c2csc(n2)C(C(C)C)NC(=O)c2nc1sc2C (stereo not drawn) :: -1
COc1ccc(NC(=O)COCCOCCNC[C@@H]2C(=O)O[C@H]3[C@H]2CC/C(COC(=O)OC/C2=C/CC[C@@]4(C)O[C@H]4[C@H]4OC(=O)[C@@H](CN(C)C)[C@@H]4CC2)=C\CC[C@@]2(C)O[C@@H]32)c(O)c1C(N)=O :: -1
C=C(C)[C@@H]1CC[C@]2(C)[C@H](CC=C3[C@@H]4[C@@H](C)[C@H](C)CC[C@]4(C(N)=O)CC[C@]32C)[C@@]1(C)CCC#N :: -1
CCCCCCCCCCCCOC1C(C(COC2OC(C3COC(C)(C)O3)C3OC(C)(C)OC23)NC(=O)NS(=O)(=O)c2ccccc2)OC2OC(C)(C)OC21 (stereo not drawn) :: -1
CCC[CH2][Sn]([CH2]CCC)([CH2]CCC)[O]C(=O)c1ccc(Cl)cc1Cl :: 1
CC(C)COCC(CN(Cc1ccccc1)c1ccccc1)N1CCCC1 (stereo not drawn) :: -1

----------
TGI: recorded values
# System: SN12C renal
# Test description: NCI tumour cell line growth inhibition, 48 h
Measure: TGI

OC1[C@H](O)CN(OCc2ccccc2)C[C@@H]1O (some centres not stated) :: > 100 µM
COC(=O)c1c2c(cc3c1CC1(Cc4ccc(C(C)=O)cc4C1)C3)CCC2 (configuration not stated) :: > 100 µM
O=P1(c2ccccc2)C(c2ccccc2)=CC=C1c1ccccc1 :: > 100 µM
O=S(Nc1ccccc1)c1ccc(Cl)c(Cl)c1 (configuration not stated) :: > 100 µM
C=CC[C@@]1([C@H](C=C)COCc2ccc(OC)cc2)CC[C@]2(C)OC(C)(C)[C@@H](c3ccccc3)N2C1=S :: > 100 µM
C[n+]1c2ccccc2c(NC(CS)C(=O)O)c2ccccc21 (configuration not stated) :: > 100 µM
COC(=O)[C@@H](NC(=O)N(CCC#N)CCCN(C(=O)N[C@H](Cc1ccccc1)C(=O)OC)c1ccccc1)C(C)C :: > 100 µM
Cc1cc(NCc2cc(Nc3ccnc4cc(Cl)ccc34)ccc2F)nc(N2CCN(C)CC2)n1 :: 8.31 µM
CC1(C)C/C(=N/O)c2c(nc3ccc4ccccc4c3c2-c2ccc(Cl)cc2)C1 :: 22.7 µM
CN(C(=O)C1CCCCCC1=O)c1ccccc1Cl (configuration not stated) :: > 100 µM
Cc1cc(Cc2cc(C)cc(C(C)(C)C)c2O)c(O)c(Cc2cc(C)cc(C(C)(C)C)c2O)c1 :: 8.28 µM
CN(C)CC1CCCC(CN(C)C)C1=NOC(=O)c1ccccc1 (configuration not stated) :: > 100 µM

----------
# Test system: U251 CNS
# Test description: NCI tumour cell line growth inhibition, 48 h
log10 TGI: recorded values
Measure: log10 TGI (log10 of the value in µM)

Cc1ccc(NC(=O)C(=O)CC(=O)c2c(C)n([O-])c3ccccc3[n+]2=O)cc1 :: 1.97
CCN(CC)CCn1c2ccccc2c(=O)c2c(O)ccc(O)c21 :: 1.87
Cc1[nH]c(=O)n2c(C)nnc2c1C(=O)Nc1cc(Cl)cc(Cl)c1 :: 1.73
CCOC(=O)/C(=C\c1cccs1)P(=O)(OCC)OCC :: 1.62
CC[C@@]1(OC(=O)CN)C(=O)OCc2c1cc1n(c2=O)Cc2cc3c(N)cccc3nc2-1 :: -0.39
CCOC(=O)/C(=C\c1ccc(C#N)cc1)C(C)=O :: 1.51
COc1ccc2c(c1)-c1[nH]c3ccc(OC)cc3c1CC2 :: 1.59
COc1cc2c(cc1OCCCCCOc1ccc(-n3c(C)nc4ccccc4c3=O)cc1)N=C[C@@H]1CCCN1C2=O :: -0.12
CCC[CH2][Sn]([CH2]CCC)([CH2]CCC)[O]C(=O)c1ccc(Cl)cc1Cl :: -0.48
CCCCCCCCCCCCOC1C(C(COC2OC(C3COC(C)(C)O3)C3OC(C)(C)OC23)NC(=O)NS(=O)(=O)c2ccccc2)OC2OC(C)(C)OC21 (stereo not given) :: 0.99
N#Cc1ccc(C(=O)/C=C/c2ccc(O)c(O)c2)cc1 :: 1.42
COC(=O)C1=C(C(=O)OC)SC(=C(Cl)C(=S)Nc2ccccc2O)S1 :: 1.48
